# experiment: activity coefficient (dimensionless); of the first substance listed, at infinite dilution; xn = mol fraction of the nth substance listed
# reported_conditions: 354.15 K; Liquid; Chromatography; x1 = 0
Give measured activity coefficient for each item. Keep answers brief.
In your answer, state the number alone without any accompanying words.

Look up and state reported activity coefficient for CCC(=O)OC [methyl propanoate] + CCCCCC[n+]1ccn(C)c1.O=S(=O)([N-]S(=O)(=O)C(F)(F)F)C(F)(F)F 0.688

Look up and state reported activity coefficient for C=CCCCCCCC [1-nonene] + CCCCCC[n+]1ccn(C)c1.O=S(=O)([N-]S(=O)(=O)C(F)(F)F)C(F)(F)F 9.99

Look up and state reported activity coefficient for CCCC(=O)OC [methyl butanoate] + CCCCCC[n+]1ccn(C)c1.O=S(=O)([N-]S(=O)(=O)C(F)(F)F)C(F)(F)F 0.884

Look up and state reported activity coefficient for CCCCC(=O)OC [methyl pentanoate] + CCCCCC[n+]1ccn(C)c1.O=S(=O)([N-]S(=O)(=O)C(F)(F)F)C(F)(F)F 0.99

All figures here come from the NIST ThermoML archive (doi:10.1021/je0503554).
